# pIC50 annotations
Species on record: Cavia porcellus
Assay: The opioid activity by guinea pig ileum assay
Type: functional
Please keep in mind that pIC50 is minus log10 of the molar concentration; only the number is needed.

CC[C@H](C)[C@H](NC(=O)[C@H](CCCN=C(N)N)NC(=O)[C@H](CCCN=C(N)N)NC(=O)[C@H](CC(C)C)NC(=O)[C@H](Cc1ccccc1)NC(=O)CNC(=O)CNC(=O)[C@H](Cc1ccc(O)cc1)NCC1CC1)C(=O)N[C@@H](CCCN=C(N)N)C(=O)N1CCCC1C(=O)N[C@@H](CCCCN)C(=O)O (stereo in doubt): 8.67

**Q:** Which pIC50 is reported for this compound? CC[C@H](C)[C@H](NC(=O)[C@H](CCCN=C(N)N)NC(=O)[C@H](CCCN=C(N)N)NC(=O)[C@H](CC(C)C)NC(=O)[C@H](Cc1ccccc1)NC(=O)CNC(=O)CNC(=O)[C@H](Cc1ccc(O)cc1)N(Cc1ccccc1)Cc1ccccc1)C(=O)N[C@@H](CCCN=C(N)N)C(=O)N1CCCC1C(=O)N[C@@H](CCCCN)C(=O)O (stereo in doubt)
**A:** 6.64

----------
Molecular target: Kappa-type opioid receptor (Cavia porcellus, UniProt P41144)
Sequence (P41144 whole entry): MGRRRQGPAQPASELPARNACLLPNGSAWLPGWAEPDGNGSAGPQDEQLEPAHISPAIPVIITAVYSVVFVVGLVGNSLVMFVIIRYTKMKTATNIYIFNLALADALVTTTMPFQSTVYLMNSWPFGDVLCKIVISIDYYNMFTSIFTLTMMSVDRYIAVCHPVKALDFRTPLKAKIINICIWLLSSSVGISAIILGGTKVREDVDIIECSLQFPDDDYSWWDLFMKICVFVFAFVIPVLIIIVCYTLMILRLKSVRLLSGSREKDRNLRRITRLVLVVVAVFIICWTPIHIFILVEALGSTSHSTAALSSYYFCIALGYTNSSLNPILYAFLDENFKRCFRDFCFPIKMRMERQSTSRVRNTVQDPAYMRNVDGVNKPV
Assay: Binding affinity towards Opioid receptor kappa 1 using [3H]diprenorphine as radioligand in guinea pig cerebellar membrane in absence of 120 mM NaCl + 50 uM Gpp(NH)p
Type: cell membranes, Cerebellum
measurement-kind: IC50 (pM)
Reply numerically in pM, unit not repeated.

**Q:** Which IC50 is reported for this compound? CC[C@H](C)[C@H](NC(=O)[C@H](CCCN=C(N)N)NC(=O)[C@H](CCCN=C(N)N)NC(=O)[C@H](CC(C)C)NC(=O)[C@H](Cc1ccccc1)NC(=O)CNC(=O)CNC(=O)[C@H](Cc1ccc(O)cc1)NCC1CC1)C(=O)N[C@@H](CCCN=C(N)N)C(=O)N1CCCC1C(=O)N[C@@H](CCCCN)C(=O)O (stereo in doubt)
**A:** 410

----------
Molecular target: Kappa-type opioid receptor (Cavia porcellus)
Experiment: Binding affinity towards Opioid receptor kappa 1 using [3H]diprenorphine as radioligand in guinea pig cerebellar membrane in absence of 120 mM NaCl + 50 uM Gpp(NH)p
Format: cell membranes, Cerebellum
# IC50 annotations
Reply numerically in nM, unit not repeated.

Observe how each entry below is paired with its result.
CC[C@H](C)[C@H](NC(=O)[C@H](CCCN=C(N)N)NC(=O)[C@H](CCCN=C(N)N)NC(=O)[C@H](CC(C)C)NC(=O)[C@H](Cc1ccccc1)NC(=O)CNC(=O)CNC(=O)[C@H](Cc1ccc(O)cc1)N(CC1CC1)CC1CC1)C(=O)N[C@@H](CCCN=C(N)N)C(=O)N1CCCC1C(=O)N[C@@H](CCCCN)C(=O)O (stereo in doubt): 3.31
C=CCN(CC=C)[C@@H](Cc1ccc(O)cc1)C(=O)NCC(=O)NCC(=O)N[C@@H](Cc1ccccc1)C(=O)N[C@@H](CC(C)C)C(=O)N[C@@H](CCCN=C(N)N)C(=O)N[C@@H](CCCN=C(N)N)C(=O)N[C@H](C(=O)N[C@@H](CCCN=C(N)N)C(=O)N1CCCC1C(=O)N[C@@H](CCCCN)C(=O)O)[C@@H](C)CC (stereo in doubt): 21.3

**Q:** Which IC50 is reported for this molecule? CC[C@H](C)[C@H](NC(=O)[C@H](CCCN=C(N)N)NC(=O)[C@H](CCCN=C(N)N)NC(=O)[C@H](CC(C)C)NC(=O)[C@H](Cc1ccccc1)NC(=O)CNC(=O)CNC(=O)[C@H](Cc1ccc(O)cc1)N(Cc1ccccc1)Cc1ccccc1)C(=O)N[C@@H](CCCN=C(N)N)C(=O)N1CCCC1C(=O)N[C@@H](CCCCN)C(=O)O (stereo in doubt)
**A:** 43.2
